Cited source: patent US8247211B2

system: Staphylococcus sp.; assay: In vitro antibacterial evaluation: minimum inhibitory concentration (MIC), broth dilution method; format: cell-based; settings: strain GC 4544
MIC Staphylococcus aureus (GC 4544) for assorted compounds
Field format: number, assumed µg/mL, no unit text.

CC(c1ccccc1)C1NC(=O)CNC(=O)C(CO)NC(=O)C(C(O)C2CNC(=N)N2C2OC(CO)C(O)C(O)C2O)NC(=O)C(C(O)C2CNC(=N)N2)NC(=O)C(Cc2ccc(OC3OC(CO)C(OC4OC5COC(c6cccc(O)c6)OC5C(O)C4O)C(O)C3O)cc2)NC1=O (stereo not shown) [Example 136] ... 16

For CC(c1ccccc1)C1NC(=O)CNC(=O)C(CO)NC(=O)C(C(O)C2CNC(=N)N2C2OC(CO)C(O)C(O)C2O)NC(=O)C(C(O)C2CNC(=N)N2)NC(=O)C(Cc2ccc(OC3OC(CO)C(OC4OC(COC(=O)OCc5ccccc5)C(O)C(O)C4O)C(O)C3O)cc2)NC1=O (stereo not shown) [Example 101a] on Staphylococcus sp., measured MIC Staphylococcus aureus (GC 4544) was 4

For CCCCOC(=O)CCC1OCC2OC(OC3C(CO)OC(Oc4ccc(CC5NC(=O)C(C(C)c6ccccc6)NC(=O)CNC(=O)C(CO)NC(=O)C(C(O)C6CNC(=N)N6C6OC(CO)C(O)C(O)C6O)NC(=O)C(C(O)C6CNC(=N)N6)NC5=O)cc4)C(O)C3O)C(O)C(O)C2O1 (stereo not shown) [Example 114] on Staphylococcus sp., measured MIC Staphylococcus aureus (GC 4544) was 2

For CC(c1ccccc1)C1NC(=O)CNC(=O)C(CO)NC(=O)C(C(O)C2CNC(=N)N2C2OC(CO)C(O)C(O)C2O)NC(=O)C(C(O)C2CNC(=N)N2)NC(=O)C(Cc2ccc(OC3OC(CO)C(OC4OC(CO)C(O)C5OC6(CCCCCCCCCCCC6)OC45)C(O)C3O)cc2)NC1=O (stereo not shown) [Example 210a] on Staphylococcus sp., measured MIC Staphylococcus aureus (GC 4544) was 8
